TARGET_SYSTEM: T1, human sodium-dependent phosphate transporter 2B (NaPi2b) (human, UniProt O95436 1-690)
T1 construct: UniProt ID is given as 095436 [sic]; also called hNaPi2b; Hu NaPi2b
T1 sequence: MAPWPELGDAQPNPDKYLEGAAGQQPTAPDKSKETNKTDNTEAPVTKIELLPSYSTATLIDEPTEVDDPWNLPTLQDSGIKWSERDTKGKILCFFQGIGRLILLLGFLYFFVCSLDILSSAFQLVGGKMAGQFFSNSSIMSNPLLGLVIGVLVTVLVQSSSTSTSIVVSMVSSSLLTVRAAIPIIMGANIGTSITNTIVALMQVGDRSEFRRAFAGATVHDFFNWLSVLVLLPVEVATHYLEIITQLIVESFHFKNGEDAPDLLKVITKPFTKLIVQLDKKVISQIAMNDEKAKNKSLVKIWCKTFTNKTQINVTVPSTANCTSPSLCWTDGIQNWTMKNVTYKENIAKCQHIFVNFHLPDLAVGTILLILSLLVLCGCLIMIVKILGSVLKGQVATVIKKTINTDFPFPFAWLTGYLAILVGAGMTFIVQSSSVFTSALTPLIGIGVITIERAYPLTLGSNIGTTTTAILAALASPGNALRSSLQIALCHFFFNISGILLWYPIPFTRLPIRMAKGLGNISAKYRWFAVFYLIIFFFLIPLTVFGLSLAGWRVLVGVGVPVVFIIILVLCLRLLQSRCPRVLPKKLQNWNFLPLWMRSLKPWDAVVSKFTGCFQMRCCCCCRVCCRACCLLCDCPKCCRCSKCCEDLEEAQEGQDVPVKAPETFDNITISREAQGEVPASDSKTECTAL
PROCEDURE_DETAILS: flow cytometry, IGROV-1 cells (endogenous NaPi2b), 24 h at 4 °C; apparent Kd
Description: IGROV-1 cells express endogenous NaPi2b at a high level. Briefly, cells were seeded at 50,000 cells/well in conical-bottom 96-well plates and treated with test antibody for 24 hours at 4° C. to prevent internalization. […] Following incubation and washing, fluorescence was detected by flow cytometry on a BD LSRFortessa™ Cell Analyzer (BD Biosciences, Franklin Lake, NJ) with 1,000 minimum events collected per well. […]
OBSERVABLE: Kd (nM)
Just the number in nM, nothing appended.

Ask: Please look up its Kd: v29458 humanized anti-NaPi2b antibody (H3L1) (antibody, human IgG1, kappa, V domains shown) VH: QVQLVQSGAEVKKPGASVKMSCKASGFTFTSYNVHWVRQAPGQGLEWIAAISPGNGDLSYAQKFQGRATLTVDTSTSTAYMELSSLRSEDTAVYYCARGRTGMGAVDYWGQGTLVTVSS VL: DIQMTQSPSSLSASVGDRVTITCRASQDVYSYLNWYQQKPGKAPKLLIYYTSRLQSGVPSRFSGSGSGTDFTLTISSLQPEDFATYYCQQYNIFPWTFGQGTKLEIKR
Result: 1.39
